experimentSummary: Hemolysis
Assay type: cell-based
For each record, write down the corresponding hemolysis.

molecule: C=CC(=C)CC[C@]1(C)[C@H]2C[C@H](OC(=O)CCC)C=C3[C@H](OC(C)=O)O[C@H](OC(C)=O)[C@@]32[C@H](O)C[C@@H]1C
result: < 1%

Would you kindly look at the next entry?
// hemolysis value for C=CC(=C)CC[C@]1(C)[C@H]2C[C@H](OC(=O)C(C)CC)C=C3[C@H](OC(C)=O)O[C@H](OC(C)=O)[C@@]32[C@H](O)C[C@@H]1C (relative stereo) : < 1%

---

experimentSummary: Zebrafish embryos acute toxicity test
Type: in vivo, Danio rerio
testConditions: zebrafish (Danio rerio), in vivo, other: immersion of embryos in treatment solution in wells; zebrafish embryos
readoutKind: LC50 at 3 days

// LC50 at 3 days value for C=CC(=C)CC[C@]1(C)[C@H]2C[C@H](OC(=O)CCC)C=C3[C@H](OC(C)=O)O[C@H](OC(C)=O)[C@@]32[C@H](O)C[C@@H]1C : 1 to 5 µg/mL
